Provenance of the data: patent US20240116985A1

Could you please report measured pIC50 for the items listed next?
molecular target: full-length beta-Catenin (Uniprot ID P35222) (Homo sapiens); construct: 10 nM full-length beta-Catenin (Uniprot ID P35222); experiment: Fluorescence polarization IC50 (beta-catenin / 5FAM-TCF4 10-53 competition); format: binding; conditions: read-out: FP EC50
Field pIC50 (float): negative decimal logarithm of the concentration in molar.

# query: pIC50 of entry CC(=O)N1CCC[C@]12CC=CCCCC1(CCCC=CCCCCCC[C@@](C)(C(=O)N[C@@H](Cc3ccccc3)C(=O)N[C@@H](Cc3csc4ccccc34)C(=O)N[C@@H](CCC(N)=O)C(N)=O)NC(=O)[C@H](CCC(N)=O)NC(=O)[C@H](Cc3ccccc3)NC(=O)[C@H](C)NC(=O)[C@H](C)NC(=O)[C@H](CCC(=O)O)NC(=O)[C@H](CC(=O)O)NC1=O)NC(=O)[C@H](CC(C)C)NC(=O)[C@H](CC(=O)O)NC2=O (stereo partly drawn) [I-505] 7.64

// lookup pIC50 for CC[C@H](C)[C@@H]1NC(=O)[C@H](CC(=O)O)NC(=O)[C@]2(CC=CCCCC3(CCCC=CCCCCCC[C@@](C)(C(=O)N[C@@H](Cc4ccccc4)C(=O)N[C@@H](Cc4csc5ccccc45)C(=O)N[C@@H](CCC(N)=O)C(N)=O)NC(=O)[C@H](CCC(N)=O)NC(=O)[C@H](Cc4ccccc4)NC(=O)[C@H](C)NC(=O)[C@H](CCC(N)=O)NC(=O)[C@H](CCC(=O)O)NC(=O)[C@H](CC(=O)O)NC3=O)NC1=O)CCCN2C(C)=O (stereo partly drawn) [I-654] 7.70

Reported pIC50, compound CC[C@H](C)[C@@H]1NC(=O)C[C@H](CC(=O)O)NC(=O)[C@]2(CC=CCCCC3(CCCC=CCCCCCC[C@@](C)(C(=O)N[C@@H](Cc4ccccc4)C(=O)N[C@@H](Cc4csc5ccccc45)C(=O)N[C@@H](CCC(N)=O)C(N)=O)NC(=O)[C@H](CCC(N)=O)NC(=O)[C@H](Cc4ccccc4)NC(=O)[C@H](C)NC(=O)[C@H](C)NC(=O)[C@H](CCC(=O)O)NC(=O)[C@H](CC(=O)O)NC3=O)NC1=O)CCCN2C(C)=O (stereo partly drawn) [I-671] : ____ 5.50

---

Biological target: full-length beta-Catenin (Uniprot ID P35222) (Homo sapiens, UniProt P35222)
Construct: 10 nM full-length beta-Catenin (Uniprot ID P35222)
Sequence (P35222 1-781): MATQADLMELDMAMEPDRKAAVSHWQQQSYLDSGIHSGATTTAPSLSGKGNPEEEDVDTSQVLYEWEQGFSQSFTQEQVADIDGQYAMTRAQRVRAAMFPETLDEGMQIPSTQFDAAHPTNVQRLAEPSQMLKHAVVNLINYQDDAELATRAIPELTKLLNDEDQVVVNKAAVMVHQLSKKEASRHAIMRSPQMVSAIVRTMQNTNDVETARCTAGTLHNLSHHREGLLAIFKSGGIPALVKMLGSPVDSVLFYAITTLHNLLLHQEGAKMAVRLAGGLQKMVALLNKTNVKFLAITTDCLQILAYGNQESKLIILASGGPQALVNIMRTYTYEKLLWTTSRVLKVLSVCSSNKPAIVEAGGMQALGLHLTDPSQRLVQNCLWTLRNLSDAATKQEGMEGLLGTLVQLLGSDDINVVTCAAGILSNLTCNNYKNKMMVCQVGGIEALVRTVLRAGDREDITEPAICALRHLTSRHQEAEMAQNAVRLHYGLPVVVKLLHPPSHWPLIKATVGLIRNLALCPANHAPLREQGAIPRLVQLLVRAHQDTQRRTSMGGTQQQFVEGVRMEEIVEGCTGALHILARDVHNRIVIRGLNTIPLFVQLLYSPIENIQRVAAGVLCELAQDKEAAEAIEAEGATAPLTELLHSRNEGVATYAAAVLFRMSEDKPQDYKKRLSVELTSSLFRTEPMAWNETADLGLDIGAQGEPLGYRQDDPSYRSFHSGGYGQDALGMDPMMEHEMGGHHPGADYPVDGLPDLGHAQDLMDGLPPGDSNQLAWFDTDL
Assay: Fluorescence polarization IC50 (beta-catenin / 5FAM-TCF4 10-53 competition)
Type: binding
Details: fluorescence polarization; read-out: beta-Catenin FP IC50
Please go through the items and note down their IC50.
Report the figure in nM without appending any unit label.

What does the record list as IC50 for CC(=O)N1CCC[C@]12CC=CCCCC1(CCCC=CCCCOC(=O)N3CC[C@@](C(=O)N[C@@H](Cc4ccccc4Cl)C(=O)N[C@@H](Cc4csc5ccccc45)C(=O)N[C@H](C(N)=O)[C@@H](C)O)(C3)NC(=O)[C@H](CO)NC(=O)[C@H](Cc3ccccc3)NC(=O)[C@H](C)NC(=O)[C@H](C)NC(=O)[C@H](CC(=O)O)NC(=O)[C@H](CC(=O)O)NC1=O)NC(=O)[C@H](CC1CCCCC1)NC(=O)[C@H](CC(=O)O)NC2=O (stereo partly drawn) ? 20

Item under review: CCOC(=O)CC[C@@H]1NC(=O)[C@H](CC(=O)O)NC(=O)C2(CCCC=CCCCOC(=O)N3CC[C@@](C(=O)N[C@@H](Cc4ccsc4)C(=O)N[C@@H](Cc4csc5ccccc45)C(=O)N[C@@H](CCC(N)=O)C(N)=O)(C3)NC(=O)[C@H](CC(C)C)NC(=O)[C@H](Cc3ccccc3)NC(=O)[C@H](C)NC(=O)[C@H](C)NC1=O)CCCC=CC[C@]1(CCCN1C(C)=O)C(=O)N[C@@H](CC(=O)O)C(=O)N[C@@H](CC(C)(C)C)C(=O)N2 (stereo partly drawn) . Reported IC50? 3440

Item under review: CCNC(=O)CC[C@H](NC(=O)[C@H](Cc1csc2ccccc12)NC(=O)[C@H](Cc1ccsc1)NC(=O)[C@]12CCN(C1)C(=O)OCCCC=CCCCC1(CCCC=CC[C@]3(CCCN3C(C)=O)C(=O)N[C@@H](CC(=O)O)C(=O)N[C@@H](CC(C)(C)C)C(=O)N1)C(=O)N[C@@H](CC(=O)O)C(=O)N[C@@H](CN(CC(=O)O)CC(F)(F)F)C(=O)N[C@@H](C)C(=O)N[C@@H](C)C(=O)N[C@@H](Cc1ccccc1)C(=O)N[C@@H](CC(C)C)C(=O)N2)C(=O)N[C@@H](C)C(N)=O (stereo partly drawn) . Reported IC50? 14

If you can, please state the reported IC50 value of CC(=O)N1CCC[C@]12CC=CCCCC1(CCCC=CCCCOC(=O)N3CC[C@@](C(=O)N[C@@H](Cc4ccccc4Cl)C(=O)N[C@@H](Cc4csc5ccccc45)C(=O)N[C@@H](CO)C(N)=O)(C3)NC(=O)[C@H]([C@@H](C)O)NC(=O)[C@H](Cc3ccccc3)NC(=O)[C@H](CC(C)C)NC(=O)[C@H](CC(C)C)NC(=O)[C@H](CC(=O)O)NC(=O)[C@H](CC(=O)O)NC1=O)NC(=O)[C@H](CC1CCCCC1)NC(=O)[C@H](CC(=O)O)NC2=O (stereo partly drawn) . 65

Bench note: what IC50 did CC(=O)N1CCC[C@]12CC=CCCCC1(CCCC=CCCCOC(=O)N3CC[C@@](C(=O)N[C@@H](Cc4ccccc4)C(=O)N[C@@H](Cc4csc5ccccc45)C(=O)N[C@@H](CCC(N)=O)C(N)=O)(C3)NC(=O)[C@H](CC(C)C)NC(=O)[C@H](Cc3ccccc3)NC(=O)[C@H](C)NC(=O)[C@H](C)NC(=O)[C@H](CN(CC(=O)O)CC(F)(F)F)NC(=O)[C@H](CC(=O)O)NC1=O)NC(=O)[C@H](CC(C)(C)C)NC(=O)[C@H](CC(=O)O)NC2=O (stereo partly drawn) show? 16

Reported IC50, compound CC(=O)N1CCC[C@]12CC=CCCCC1(CCCC=CCCCOC(=O)N3CC[C@@](C(=O)N[C@@H](Cc4ccsc4)C(=O)N[C@@H](Cc4csc5ccccc45)C(=O)N[C@@H](Cc4c[nH]cn4)C(N)=O)(C3)NC(=O)[C@H](CCC(N)=O)NC(=O)[C@H](Cc3ccccc3)NC(=O)[C@H](C)NC(=O)[C@H](C)NC(=O)[C@H](CC(=O)O)NC(=O)[C@H](CC(=O)O)NC1=O)NC(=O)[C@H](CC(C)(C)C)NC(=O)[C@H](CC(=O)O)NC2=O (stereo partly drawn) [I-1460] : ____ 7

Item under review: CC[C@H](C)[C@@H]1NC(=O)[C@H](CC(=O)O)NC(=O)[C@]2(CC=CCCCC3(CCCC=CCCCCCC[C@@](C)(C(=O)N[C@@H](Cc4ccccc4)C(=O)N[C@@H](Cc4csc5ccccc45)C(=O)N[C@@H](CCC(N)=O)C(N)=O)NC(=O)[C@H](CCC(N)=O)NC(=O)[C@H](Cc4ccccc4)NC(=O)[C@H](C)NC(=O)[C@H](Cc4ccccc4)NC(=O)[C@H](CCC(=O)O)NC(=O)[C@H](CC(=O)O)NC3=O)NC1=O)CCCN2C(C)=O (stereo partly drawn) [I-650] . Reported IC50? 137

# input compound: CC(C)C[C@H](NC(=O)[C@]12CCN(C1)C(=O)OCCCCCCCCC1(CCCCCCCC(=O)N3CCC[C@@]3(C)C(=O)N[C@@H](CC(=O)O)C(=O)N1)C(=O)N[C@@H](C)C(=O)N[C@@H](CC(=O)O)C(=O)N[C@@H](Cc1cccc(C(=O)O)c1)C(=O)N[C@@H](C)C(=O)N[C@@H](C)C(=O)N[C@@H](Cc1ccccc1)C(=O)N2)C(=O)N[C@@H](Cc1ccsc1)C(=O)N[C@@H](Cc1csc2ccccc12)C(=O)N[C@@H](CCC(N)=O)C(N)=O (stereo partly drawn) ; wanted: its IC50 608

Given the entry CC(=O)N1CCC[C@]12CC=CCCCC1(CCCC=CCCCOC(=O)N3CC[C@@](C(=O)N[C@@H](Cc4ccsc4)C(=O)N[C@@H](Cc4csc5ccccc45)C(=O)N[C@@H](CCC(N)=O)C(N)=O)(C3)NC(=O)[C@H](CC(N)=O)NC(=O)[C@H](Cc3ccccc3)NC(=O)[C@H](C)NC(=O)[C@H](C)NC(=O)[C@H]([C@@H](C)O)NC(=O)[C@H](CC(N)=O)NC1=O)NC(=O)[C@H](CC(C)(C)C)NC(=O)[C@H](CC(=O)O)NC2=O (stereo partly drawn) [I-1565] , report its measured IC50. 148
